Answer each item with its documented normalised response.
- Tested on: MCF-10A
- experiment notes: normalised response (% of control), CellTox Green; higher = less cell death (100 = DMSO, 0 = benzethonium chloride kill control)
- protocol conditions: incubation time: 72 h
Reply with just the number (in %).

For the compound CO[C@H]1C[C@@H]2CC[C@@H](C)[C@@](O)(O2)C(=O)C(=O)N2CCCC[C@H]2C(=O)O[C@H]([C@H](C)C[C@@H]2CC[C@@H](OCCO)[C@H](OC)C2)CC(=O)[C@H](C)/C=C(\C)[C@@H](O)[C@@H](OC)C(=O)[C@H](C)C[C@H](C)/C=C/C=C/C=C/1C [Everolimus] (100 nM) , the measured normalised response on MCF-10A was 92.9

CN(C)C[C@@H]1CCn2cc(c3ccccc32)C2=C(C(=O)NC2=O)c2cn(c3ccccc23)CCO1 [Ruboxistaurin] (100 nM) on MCF-10A gives normalised response = 95.6

Item: CNNCc1ccc(C(=O)NC(C)C)cc1 [Procarbazine] (10000 nM) | System: MCF-10A | normalised response: 115

// returns normalised response for O=C1NC(=O)[C@@H](c2cn3c4c(cccc24)CCC3)[C@@H]1c1c[nH]c2ccccc12 [Tivantinib] (100 nM) with MCF-10A; value = 113

Cn1cncc1[C@@](N)(c1ccc(Cl)cc1)c1ccc2c(c1)c(-c1cccc(Cl)c1)cc(=O)n2C [Tipifarnib] (100 nM) on MCF-10A gives normalised response = 99.7

Note to self: normalised response of Cn1c(=O)n(-c2ccc(C(C)(C)C#N)cc2)c2c3cc(-c4cnc5ccccc5c4)ccc3ncc21 [Dactolisib] (10 nM) with MCF-10A was 108

Considering Nc1nc(OCc2cc(Br)cs2)c2[nH]cnc2n1 [Lomeguatrib] (100 nM) , its normalised response with MCF-10A was recorded as 97.3

Entry CN(C)C[C@@H]1CCn2cc(c3ccccc32)C2=C(C(=O)NC2=O)c2cn(c3ccccc23)CCO1 [Ruboxistaurin] (1000 nM) , MCF-10A data, normalised response value: 103

Field normalised response (system: MCF-10A) for entry C[C@]12CC[C@H](O)CC1=CC[C@@H]1[C@@H]2CC[C@]2(C)C(c3cccnc3)=CC[C@@H]12 [Abiraterone] (50 nM) = 63.7

# C[C@]12CC[C@H](O)CC1=CC[C@@H]1[C@@H]2CC[C@]2(C)C(c3cccnc3)=CC[C@@H]12 [Abiraterone] (500 nM) with MCF-10A: normalised response is 102

Fill in: MCF-10A normalised response for COc1ccccc1S(=O)(=O)Nc1ccc2c(c1)CN(C)C(=O)N2 [PFI-1] (1000 nM) = 105

Recorded normalised response for Nc1nc(OCc2cc(Br)cs2)c2[nH]cnc2n1 [Lomeguatrib] (1000 nM) on MCF-10A was 93.5

Response field normalised response (MCF-10A) for item C/C(=C\c1csc(C)n1)[C@@H]1C[C@@H]2O[C@]2(C)CCC[C@H](C)[C@H](O)[C@@H](C)C(=O)C(C)(C)[C@@H](O)CC(=O)O1 [Patupilone] (10 nM) : 103

Record for O=C(O)CCCc1ccc(N(CCCl)CCCl)cc1 [Chlorambucil] (100 nM) under target or system MCF-10A: normalised response reported as 101

###

- Tested on: BT-549
- experiment notes: normalised response (% of control), CellTox Green; higher = less cell death (100 = DMSO, 0 = benzethonium chloride kill control)
- protocol conditions: incubation time: 72 h
Exercise: state measured normalised response for each of the compounds provided.
All answers are understood in %, so give the number only.

Form field normalised response for item C/C(=C\c1csc(C)n1)[C@@H]1C[C@@H]2O[C@]2(C)CCC[C@H](C)[C@H](O)[C@@H](C)C(=O)C(C)(C)[C@@H](O)CC(=O)O1 [Patupilone] (1000 nM) on BT-549: 74.4

Let me check: NS(=O)(=O)OC[C@@H]1C[C@@H](n2ccc3c(N[C@H]4CCc5ccccc54)ncnc32)C[C@@H]1O [Pevonedistat] (1000 nM) , system BT-549, measured normalised response is 85

Simply: COc1ccc(-c2ccc3c(N4CCOC[C@@H]4C)nc(N4CCOC[C@@H]4C)nc3n2)cc1CO [AZD8055] (10000 nM) , BT-549, normalised response = 111

Considering Nc1nc(OCc2cc(Br)cs2)c2[nH]cnc2n1 [Lomeguatrib] (1000 nM) , its normalised response with BT-549 was recorded as 108

###

- System: MDA-MB-436
- experiment notes: normalised response (% of control), CellTox Green; higher = less cell death (100 = DMSO, 0 = benzethonium chloride kill control)
- protocol conditions: incubation time: 72 h
quantity kind: normalised response (%)
Enter your answer as a number in %; do not include the unit.

The recorded normalised response for CN(C)C[C@@H]1CCn2cc(c3ccccc32)C2=C(C(=O)NC2=O)c2cn(c3ccccc23)CCO1 [Ruboxistaurin] (100 nM) is 79.8

So, C/C(=C\c1csc(C)n1)[C@@H]1C[C@@H]2O[C@]2(C)CCC[C@H](C)[C@H](O)[C@@H](C)C(=O)C(C)(C)[C@@H](O)CC(=O)O1 [Patupilone] (100 nM) ? Its normalised response was 40.1

// NS(=O)(=O)OC[C@@H]1C[C@@H](n2ccc3c(N[C@H]4CCc5ccccc54)ncnc32)C[C@@H]1O [Pevonedistat] (10000 nM) : normalised response value = 28.2

Sure, the documented normalised response for Cc1ccc(NC(=O)c2ccc(CN3CCN(C)CC3)cc2)cc1Nc1nccc(-c2cccnc2)n1 [Imatinib] (100 nM) is 110

The recorded normalised response for CN1CCN(CCOc2cc(OC3CCOCC3)c3c(Nc4c(Cl)ccc5c4OCO5)ncnc3c2)CC1 [Saracatinib] (1000 nM) is 77.6

The value of normalised response measured for the compound C/C(=C\c1csc(C)n1)[C@@H]1C[C@@H]2O[C@]2(C)CCC[C@H](C)[C@H](O)[C@@H](C)C(=O)C(C)(C)[C@@H](O)CC(=O)O1 [Patupilone] (1000 nM) turned out to be 78.4

###

- System: HCC1599
- experiment notes: normalised response (% of control), CellTiter-Glo; higher = more viable cells (100 = DMSO, 0 = benzethonium chloride kill control)
- protocol conditions: incubation time: 72 h
quantity kind: normalised response (%)
Reply with just the number (in %).

Recorded normalised response (compound Cc1ccc(NC(=O)c2ccc(CN3CCN(C)CC3)cc2)cc1Nc1nccc(-c2cccnc2)n1 [Imatinib] (1000 nM) ): 101

The value of normalised response measured for the compound Cn1cncc1[C@@](N)(c1ccc(Cl)cc1)c1ccc2c(c1)c(-c1cccc(Cl)c1)cc(=O)n2C [Tipifarnib] (1000 nM) turned out to be 111

Reported normalised response for CO[C@H]1C[C@@H]2CC[C@@H](C)[C@@](O)(O2)C(=O)C(=O)N2CCCC[C@H]2C(=O)O[C@H]([C@H](C)C[C@@H]2CC[C@@H](OCCO)[C@H](OC)C2)CC(=O)[C@H](C)/C=C(\C)[C@@H](O)[C@@H](OC)C(=O)[C@H](C)C[C@H](C)/C=C/C=C/C=C/1C [Everolimus] (0.01 nM) was 107

Summary for this compound, CC[C@]1(O)C[C@H]2CN(CCc3c([nH]c4ccccc34)[C@@](C(=O)OC)(c3cc4c(cc3OC)N(C=O)[C@H]3[C@@](O)(C(=O)OC)[C@H](OC(C)=O)[C@]5(CC)C=CCN6CC[C@]43[C@@H]65)C2)C1 [Vincristine] (0.1 nM) : normalised response is 92.7

Entry c1ccc([C@H]2CN3CCSC3=N2)cc1 [Levamisole] (10 nM) , normalised response reported as 99.5

Documented normalised response of Cc1ccc(NC(=O)c2ccc(CN3CCN(C)CC3)cc2)cc1Nc1nccc(-c2cccnc2)n1 [Imatinib] (10 nM) : 103

Data point: CN(C)C[C@@H]1CCn2cc(c3ccccc32)C2=C(C(=O)NC2=O)c2cn(c3ccccc23)CCO1 [Ruboxistaurin] (10 nM) ; normalised response = 104

Entry CC(C)c1c(C(=O)Nc2ccccc2)c(-c2ccccc2)c(-c2ccc(F)cc2)n1CC[C@@H](O)C[C@@H](O)CC(=O)O [Atorvastatin] (1000 nM) ; normalised response = 95.6

Reported normalised response ( C/C(=C\c1csc(C)n1)[C@@H]1C[C@@H]2O[C@]2(C)CCC[C@H](C)[C@H](O)[C@@H](C)C(=O)C(C)(C)[C@@H](O)CC(=O)O1 [Patupilone] (0.1 nM) ) = 108

Reported normalised response of C[C@]12CC[C@H](O)CC1=CC[C@@H]1[C@@H]2CC[C@]2(C)C(c3cccnc3)=CC[C@@H]12 [Abiraterone] (5 nM) : 116

The recorded normalised response for entry c1ccc([C@H]2CN3CCSC3=N2)cc1 [Levamisole] (1000 nM) equals 98.4

Note to self: normalised response recorded for COc1ccccc1S(=O)(=O)Nc1ccc2c(c1)CN(C)C(=O)N2 [PFI-1] (10 nM) was 88.6

Reported normalised response of COc1ccc(-c2ccc3c(N4CCOC[C@@H]4C)nc(N4CCOC[C@@H]4C)nc3n2)cc1CO [AZD8055] (1000 nM) : 67.2

So for CC[C@]1(O)C[C@H]2CN(CCc3c([nH]c4ccccc34)[C@@](C(=O)OC)(c3cc4c(cc3OC)N(C=O)[C@H]3[C@@](O)(C(=O)OC)[C@H](OC(C)=O)[C@]5(CC)C=CCN6CC[C@]43[C@@H]65)C2)C1 [Vincristine] (100 nM) , the logged normalised response turned out to be 21.6

Measured normalised response of CN1CCN(CCOc2cc(OC3CCOCC3)c3c(Nc4c(Cl)ccc5c4OCO5)ncnc3c2)CC1 [Saracatinib] (1 nM) : 116

response.value for C[C@]12CC[C@H](O)CC1=CC[C@@H]1[C@@H]2CC[C@]2(C)C(c3cccnc3)=CC[C@@H]12 [Abiraterone] (500 nM) (field: normalised response) = 107

# normalised response of O=C1NC(=O)[C@@H](c2cn3c4c(cccc24)CCC3)[C@@H]1c1c[nH]c2ccccc12 [Tivantinib] (0.1 nM) = 107

Quick note, normalised response for COc1ccc(-c2ccc3c(N4CCOC[C@@H]4C)nc(N4CCOC[C@@H]4C)nc3n2)cc1CO [AZD8055] (1 nM) landed at 108

Entry CO[C@H]1C[C@@H]2CC[C@@H](C)[C@@](O)(O2)C(=O)C(=O)N2CCCC[C@H]2C(=O)O[C@H]([C@H](C)C[C@@H]2CC[C@@H](OCCO)[C@H](OC)C2)CC(=O)[C@H](C)/C=C(\C)[C@@H](O)[C@@H](OC)C(=O)[C@H](C)C[C@H](C)/C=C/C=C/C=C/1C [Everolimus] (0.1 nM) , normalised response reported as 90.5

Looking up CCCCCCCCc1ccc(CCC(N)(CO)CO)cc1 [Fingolimod] (10 nM) , I found its normalised response recorded as 120

normalised response in this record for Cn1c(=O)n(-c2ccc(C(C)(C)C#N)cc2)c2c3cc(-c4cnc5ccccc5c4)ccc3ncc21 [Dactolisib] (100 nM) : 80.4
